experiment: Drug level in C57BL/6 mouse plasma at 30 mg/kg, ip measured at 4 hrs; format: ADME, organism-based
measurement_kind: concentration at 4 h (nM)
Report only the number, with the unit nM understood.

Q. Returns the measured concentration at 4 h for the input compound. Input: "COc1cc(-c2ccnc3c2c(C)nn3-c2ccc(C(F)(F)F)cc2)ccc1O"
A. 1200

###

test: AUC (infinity) in C57BL/6 mouse liver at 30 mg/kg, ip; type: ADME, organism-based; design: dose 30 mg/kg, time infinity, route intraperitoneal
measurement_kind: AUC(0-inf) (µg·h/mL)
Report only the number, with the unit µg·h/mL understood.

>>> df
                               smiles_input  measurement_kind  observed_value
0  COc1cc(-c2ccnc3c2c(C)nn3-c2cccc(C(F)(F)F)c2)ccc1O        AUC(0-inf)             120

Q. Returns the measured AUC(0-inf) for the input compound. Input: "COc1cc(-c2ccnc3c2c(C)nn3-c2ccc(C(F)(F)F)cc2)ccc1O"
A. 80.3

###

assay: Tmax in C57BL/6 mouse plasma at 30 mg/kg, ip; format: ADME, organism-based; conditions: C57BL/6, mouse, plasma, read-out: Tmax
measurement_kind: Tmax (min)
Report only the number, with the unit min understood.

Q. Returns the measured Tmax for the input compound. Input: "COc1cc(-c2ccnc3c2c(C)nn3-c2cccc(C(F)(F)F)c2)ccc1O"
A. 4.98

###

experiment: Drug level in C57BL/6 mouse plasma at 30 mg/kg, ip measured at 0.5 hrs; format: ADME, organism-based
measurement_kind: concentration at 0.5 h (µM)
Report only the number, with the unit µM understood.

Q. Returns the measured concentration at 0.5 h for the input compound. Input: "COc1cc(-c2ccnc3c2c(C)nn3-c2ccc(C(F)(F)F)cc2)ccc1O"
A. 5.76

###

test system: Influenza A virus H3N2; assay: Antiviral activity against Influenza A virus (A/Brisbane/10/2007(H3N2)) infected in MDCK cells assessed as reduction in virus-induced cytopathic effect measured on day 5 by Celltiter-Glo luminescence assay; type: functional, organism-based; details: 120 h
Let's look at some compounds and their measured EC50.
Report only the number, with the unit µM understood.

                                   compound  observed_value
0  NC(=O)c1ncn([C@@H]2O[C@H](CO)[C@@H](O)[C@H]2O)n1 [RIBAVIRIN]            28.8
1  CCOc1cc(-c2c(C#N)c(O)nc3c2c(C)nn3-c2ccc(F)cc2)ccc1O            47.6
2  COc1cc(-c2ccnc3c2c(C)nn3-c2ccc(C(F)(F)F)cc2)ccc1O              17

Continue with the compound presented below.
Q. Returns the measured EC50 for the input compound. Input: "COc1cc(-c2c(C#N)c(N)nc3c2c(C)nn3-c2ccc(F)cc2)ccc1O"
A. 10.1

###

assay: Drug level in C57BL/6 mouse plasma at 30 mg/kg, ip measured at 8 hrs; type: ADME, organism-based
measurement_kind: concentration at 8 h (µM)
Report only the number, with the unit µM understood.

Q. Returns the measured concentration at 8 h for the input molecule. Input: "COc1cc(-c2ccnc3c2c(C)nn3-c2ccc(C(F)(F)F)cc2)ccc1O"
A. 0.555

###

assay: Drug level in C57BL/6 mouse plasma at 30 mg/kg, ip measured at 3 hrs; assay type: ADME, organism-based
measurement_kind: concentration at 3 h (nM)
Report only the number, with the unit nM understood.

Q. Returns the measured concentration at 3 h for the input compound. Input: "COc1cc(-c2ccnc3c2c(C)nn3-c2ccc(C(F)(F)F)cc2)ccc1O"
A. 1730

###

assay: Cmax in C57BL/6 mouse plasma at 30 mg/kg, ip; type: ADME, organism-based; design: dose 30 mg/kg, route intraperitoneal; conditions: C57BL/6, mouse, plasma, read-out: Cmax
measurement_kind: Cmax (ng/mL)
Report only the number, with the unit ng/mL understood.

Q. Returns the measured Cmax for the input compound. Input: "COc1cc(-c2ccnc3c2c(C)nn3-c2cccc(C(F)(F)F)c2)ccc1O"
A. 4470

###

assay: Stability of the compound in mouse liver microsomes assessed as parent compound remaining measured after 15 mins; type: ADME, Microsome; conditions: read-out: Stability
remaining at 0.25 h less than 70% is True; remaining at 0.25 h greater than or equal to 70% is False.

# example entries with known answers
                               smiles_input  assigned_class
0  COc1cc(-c2ccnc3c2c(C)nn3-c2cccc(C(F)(F)F)c2)ccc1O            True
1  COc1cc(-c2ccnc3c2c(C)nn3-c2ccc(C(F)(F)F)cc2)ccc1O            True
2  COc1cc(-c2c(C#N)c(N)nc3c2c(C)nn3-c2ccc(F)cc2)ccc1O           False
3  Cc1nn(-c2ccc(Cl)cc2)c2nc(N)c(C#N)c(-c3ccc(O)c(O)c3)c12           False

Next compound, please.
Q. Strictly below 70% in remaining at 0.25 h? "Cc1ccc(-n2nc(C)c3c(-c4ccc(O)c(O)c4)c(C#N)c(N)nc32)cc1C"
A. False

###

assay: AUClast in C57BL/6 mouse plasma at 30 mg/kg, ip; type: ADME, organism-based; design: dose 30 mg/kg, route intraperitoneal, time 0 - last
measurement_kind: AUC(0-t) (ng·h/mL)
Report only the number, with the unit ng·h/mL understood.

                               smiles_input  measurement_kind  unit_tag  observed_value
0  COc1cc(-c2ccnc3c2c(C)nn3-c2cccc(C(F)(F)F)c2)ccc1O          AUC(0-t)   ng·h/mL            5960

Q. Returns the measured AUC(0-t) for the input molecule. Input: "COc1cc(-c2ccnc3c2c(C)nn3-c2ccc(C(F)(F)F)cc2)ccc1O"
A. 7660

###

experiment: Drug level in C57BL/6 mouse plasma at 30 mg/kg, ip measured at 0.083 hrs; format: ADME, organism-based
measurement_kind: concentration at 0.083 h (nM)
Report only the number, with the unit nM understood.

Q. Returns the measured concentration at 0.083 h for the input compound. Input: "COc1cc(-c2ccnc3c2c(C)nn3-c2ccc(C(F)(F)F)cc2)ccc1O"
A. 2950

###

Let's look at some molecules and their measured pEC50.
tested on: Influenza A virus H3N2; assay: Antiviral activity against Influenza A virus (A/Brisbane/10/2007(H3N2)) infected in MDCK cells assessed as reduction in virus-induced cytopathic effect measured on day 5 by Celltiter-Glo luminescence assay; format: functional, organism-based; settings: 120 h
pEC50: −log10 of the molar value.

>>> df
                               smiles_input           target_system  observed_value
0  COc1cc(-c2c(C#N)c(N)nc3c2c(C)nn3-c2ccc(F)cc2)cc(OC)c1OC  Influenza A virus H3N2          < 4.30

Q. Returns the measured pEC50 for the input molecule. Input: "Cc1ccc(-n2nc(C)c3c(-c4ccc(O)c(O)c4)c(C#N)c(N)nc32)cc1C"
A. < 4.30

Q. Now give it for "Cc1nn(-c2ccc(Cl)cc2)c2nc(N)c(C#N)c(-c3ccc(O)c(O)c3)c12" too.
A. < 4.30
